Target: T1, EGFI-Cr1 E25K (human, UniProt P16422 24-63)
T1 construct: not shown: The fused constant region of human immunoglobulin gamma 1 heavy chain (Cr1)
T1 chain: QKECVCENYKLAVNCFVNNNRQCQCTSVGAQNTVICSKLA
Assay: direct ELISA, coated EGFI-Cr1 fusion, 0.1 µg/ml antibody
parameter-measured: relative binding activity (% of WT) (%)
Numbers only, in %.

Before answering, review these 2 worked examples.
| binder | parameter-measured | value |
| --- | --- | --- |
| murine monoclonal antibody 4D2 (antibody, mouse IgG1, V domains shown, Mouse IgG1, kappa, from hybridoma; also called m338-4D2.20) VH: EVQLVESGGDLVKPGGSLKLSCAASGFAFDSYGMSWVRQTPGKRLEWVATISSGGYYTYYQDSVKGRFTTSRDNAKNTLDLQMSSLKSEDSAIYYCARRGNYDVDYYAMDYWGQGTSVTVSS VL: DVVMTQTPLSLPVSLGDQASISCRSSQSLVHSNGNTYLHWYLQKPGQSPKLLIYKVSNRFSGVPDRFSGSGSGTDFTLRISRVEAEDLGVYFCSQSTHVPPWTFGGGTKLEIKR | relative binding activity (% of WT) | 2 |
| murine monoclonal antibody 1G10 (antibody, mouse IgG1, V domains shown, Mouse IgG1, kappa, from hybridoma; also called m290-1G10) VH: QIQLVQSGPELKKPGETVKISCKASGYTFTNYGMNWVKQAPGKGFKWMGWINTYTGEPTYADDFKGRFAFSLETSASTAYLQINNLQNEDMATYFCARWGYDFDYWGQGTTLTVSS VL: QIVLTQSPAIMSSSPGEKVTMTCSASSSISYMNWYQQKPGTSPKRWIYDTSKLASGVPARFSGSGSGTSYSLTISSMEAEDAATYYCHQRSSYPYTFGGGTKLEIKR | relative binding activity (% of WT) | 3 |

Okay, next one:
Asked: Output measured relative binding activity (% of WT) for this item: murine monoclonal antibody 6D11 (antibody, mouse IgG1, V domains shown, Mouse IgG1, kappa, from hybridoma; also called m338-6D11.8) VH: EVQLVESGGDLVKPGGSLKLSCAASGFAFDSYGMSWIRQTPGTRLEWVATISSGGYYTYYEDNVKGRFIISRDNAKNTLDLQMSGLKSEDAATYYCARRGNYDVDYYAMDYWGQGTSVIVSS VL: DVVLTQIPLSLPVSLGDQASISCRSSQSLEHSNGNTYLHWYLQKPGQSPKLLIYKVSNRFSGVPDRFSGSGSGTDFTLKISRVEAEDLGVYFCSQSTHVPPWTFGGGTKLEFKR
Given back: 4
